# target desc: S1P2 (Homo sapiens, UniProt O95136)
# Construct: Flag; expressed in transfected cells; host or cells: Chinese hamster ovary (CHO) cells, doxycycline-inducible (CHO-S1P2-FL / CHO-S1PR2 FL)
# Sequence (O95136 whole entry, species assumed): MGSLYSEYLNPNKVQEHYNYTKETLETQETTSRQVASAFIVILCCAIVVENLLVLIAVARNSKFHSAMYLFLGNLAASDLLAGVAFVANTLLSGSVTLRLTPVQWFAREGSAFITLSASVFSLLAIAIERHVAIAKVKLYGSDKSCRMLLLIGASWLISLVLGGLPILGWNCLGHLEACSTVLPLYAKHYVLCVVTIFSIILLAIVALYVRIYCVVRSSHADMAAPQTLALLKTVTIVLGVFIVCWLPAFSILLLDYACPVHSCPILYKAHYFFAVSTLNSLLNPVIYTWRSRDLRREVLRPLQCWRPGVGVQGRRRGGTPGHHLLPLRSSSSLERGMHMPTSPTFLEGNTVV
# measurement description: GLISA RhoA activation - antagonist assay
# Type: cell-based
# test settings: 1 μM compound, CHO-S1P2-FL cells
Label True when inhibition at 1 µM is at or above 40%; otherwise label False.

[
  {
    "compound": "Cc1cc(C(=O)C(C)n2cc(Br)ccc2=O)c(C)n1Cc1ccccc1F (stereo not drawn) [Compound 19]",
    "target desc": "S1P2 (Homo sapiens, UniProt O95136)",
    "classification": "True"
  },
  {
    "compound": "Cc1cc(C(=O)Cn2cc(C#N)ccc2=O)c(C)n1Cc1ccc2c(c1)OCO2 [Example 93]",
    "target desc": "S1P2 (Homo sapiens, UniProt O95136)",
    "classification": "False"
  },
  {
    "compound": "Cc1cc(C(=O)C(C)n2cc(Br)ccc2=O)c(C)n1Cc1cccc(Cl)c1 (stereo not drawn) [Compound 22]",
    "target desc": "S1P2 (Homo sapiens, UniProt O95136)",
    "classification": "True"
  },
  {
    "compound": "Cc1cc(C(=O)Cn2cc(C#N)ccc2=O)c(C)n1CCc1ccccc1 [Example 91]",
    "target desc": "S1P2 (Homo sapiens, UniProt O95136)",
    "classification": "False"
  },
  {
    "compound": "COc1cc(Br)cn(CC(=O)c2cnn(Cc3ccccc3)c2C)c1=O [Example 41]",
    "target desc": "S1P2 (Homo sapiens, UniProt O95136)",
    "classification": "True"
  },
  {
    "compound": "Cc1ccccc1Cn1c(C)cc(C(=O)C(C)n2cc(Br)ccc2=O)c1C (stereo not drawn) [Example 64]",
    "target desc": "S1P2 (Homo sapiens, UniProt O95136)",
    "classification": "False"
  },
  {
    "compound": "Cc1cc(C(=O)Cn2cc(Br)ccc2=O)c(C)n1Cc1ccc(F)cc1 [Compound 28]",
    "target desc": "S1P2 (Homo sapiens, UniProt O95136)",
    "classification": "True"
  }
]
